Let's look at some compounds and their measured pEC50.
# SYSTEM TESTED: GPR40-Galpha16 (Homo sapiens, UniProt O14842+P30679)
# Sequence (O14842 whole entry): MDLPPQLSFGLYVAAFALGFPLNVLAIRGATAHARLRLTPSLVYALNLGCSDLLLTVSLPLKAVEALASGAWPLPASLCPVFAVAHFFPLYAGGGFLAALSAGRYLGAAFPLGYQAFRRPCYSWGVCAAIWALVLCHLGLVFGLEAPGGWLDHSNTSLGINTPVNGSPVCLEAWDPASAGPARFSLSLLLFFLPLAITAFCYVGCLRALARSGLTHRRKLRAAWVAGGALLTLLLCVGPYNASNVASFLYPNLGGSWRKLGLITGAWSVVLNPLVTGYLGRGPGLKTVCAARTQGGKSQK
# Sequence (P30679 whole entry): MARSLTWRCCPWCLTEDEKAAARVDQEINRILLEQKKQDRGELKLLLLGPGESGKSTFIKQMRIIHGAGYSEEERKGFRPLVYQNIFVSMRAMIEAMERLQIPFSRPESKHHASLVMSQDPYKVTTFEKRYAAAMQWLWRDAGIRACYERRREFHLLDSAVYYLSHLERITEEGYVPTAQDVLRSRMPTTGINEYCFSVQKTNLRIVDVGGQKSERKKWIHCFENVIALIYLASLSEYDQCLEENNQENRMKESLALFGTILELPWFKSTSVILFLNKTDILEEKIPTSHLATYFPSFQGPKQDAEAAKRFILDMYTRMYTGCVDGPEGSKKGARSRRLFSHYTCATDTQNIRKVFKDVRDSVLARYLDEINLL
# MEASUREMENT NOTES: Agonist activity at human GPR40/Galpha-16 expressed in HEK293 cells by Fluo4-AM dye based intracellular calcium flux assay
// pEC50 here means minus log10 of the molar concentration (mol/L)

| COMPOUND SMILES | SYSTEM TESTED | pEC50 |
| --- | --- | --- |
| CCCCC/C=C\C/C=C\CCCCCCCC(=O)O | GPR40-Galpha16 (Homo sapiens, UniProt O14842+P30679) | 5.00 |

Now examine the next entry.
Ask: Lab note: record pEC50 of CC#C[C@H](CC(=O)O)c1ccc(OCc2ccc(-c3cccc(OC)c3)cc2)cc1 tested on GPR40-Galpha16 (Homo sapiens, UniProt O14842+P30679).
Result: 7.03

From: ChEMBL document CHEMBL5346928
